B1: Twister Ribozyme (parent)
chain: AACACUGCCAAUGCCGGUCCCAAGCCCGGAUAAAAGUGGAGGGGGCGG

Variants of: B1
Experiment: self-cleavage, relative activity (ratio to wild type); higher = more cleavage; co-transcriptional
valueKind: self-cleavage
Kindly provide the number alone.

seqString | val
CACCCUGCCAAUGCCGGUCCCAAGCCCGGAUAAAAGUGGAGGGGGCGG [A1C A4C] | 0.171
AACACUGCCAAUGCGGGUCCCAAGCCCGUAUAAAAGUGGAGGGGGCGG [C15G G29U] | 0.11
AACACUGCCAAUGGCGGUCUCAAGCCCGGAUAAAAGUGGAGGGGGCGG [C14G C20U] | 0.25
AACACUGCCAAUGCCGGUCCCAAGCGCGGAUAAAAGCGGAGGGGGCGG [C26G U37C] | 0.0957
AACACUGCCAAUGCCGGUCCCAAGCGCGGAAAAAAGUGGAGGGGGCGG [C26G U31A] | 0.427
AACACUGCCAAAGCCGGUCCCAAGCCCGGAUAAAAGUGGAGGGGGCGA [U12A G48A] | 0.991
AACAUUGCCAAUGCCGGUCCCAAGCCCGGAUAAAAGUGGUGGGGGCGG [C5U A40U] | 0.146
AACACUGCCAAUGCCGGUCCCAAGCCCGGAUAAAAGUGGAAGGCGCGG [G41A G44C] | 0.205

variant AACACUGGCAAUGCCGGUCCCAAGCCCGGAUAAAAGUGGAGCGGGCGG [C8G G42C] , self-cleavage observed: 0.221

What the record says about GACACUGCCAAUGCCGGUCCCAAGCCCGGAUAAAAGUGGAGUGGGCGG [A1G G42U] : self-cleavage is 0.187

For this variant ( AACACUGCCAGUGCCGGUCCCAAGCCAGGAUAAAAGUGGAGGGGGCGG [A11G C27A] ), measured self-cleavage is 0.449

Reference source: the RNAGym collection of RNA variant scans (doi:10.7554/elife.80360)
